# protocol: yeast display, Sf9 membrane polyspecificity reagent, FACS + sequencing; frameworks hold sequencing errors

residue codes: QVQLVESGGGLVQAGGSLRLSCAASGFIFLAYAMGWYRQAPGKERELVAAISRSGGRTYYADSVKGRFTISRDNAKNTVYLQMNSLKPEDTAVYYCAPLANGTNGFYYWGQGTQVTVSS
polyreactivity (PSR sort gate): high polyreactivity

residue codes: QVQLVESGGGLVQAGGSLRLSCAASGRIFVRYAMGWYRQAPGKESEFVADIDGGGGRTYADSVKGRFTISRDNAKNTVYLLMNSLKPEDTAVYYCNAYVYSIHWCDLYWSEYDYWGQGTQVTVSS
polyreactivity (PSR sort gate): high polyreactivity

* * *

# protocol: yeast display, Sf9 membrane polyspecificity reagent, FACS + sequencing; frameworks hold sequencing errors
assay endpoint: polyreactivity (PSR sort gate)

See these solved cases before continuing.
residue codes: QDQLVESGGGLVQAGGSLRLSCAGSGSTFKRYAMGWYRQAPGKDRELVAAISRRGGSTYYADSVKGRFTISRDNAKNTVYLQMNSLKPEDTAVYYCAARGTGNIYDYWGQGTQVTVSS
polyreactivity (PSR sort gate): high polyreactivity

residue codes: LVHLVESGGGLVQAGGSLRLSCAASGITFTGYAMGWYRQAPGKERELVAAITWSSGSTYYADSVKGRFTISRDNAKNTVYLQMNSLKPEDTAVYYCNAGYWYDGPDYIPEYDYWGQGTQVTVSS
polyreactivity (PSR sort gate): low polyreactivity

residue codes: QVQLVESGGGLVQAGGSLRLSCAASGSIFDRYGMGWYRQAPGKERELVADITSDGSTNYADSVKGRFTISRDNAKNTVYLQMNSLKPEDTAVYYCAVSYTAYSVGYDYWGQGTQVTVSS
polyreactivity (PSR sort gate): low polyreactivity

residue codes: QVQLVESGGGLVQAAGSLRLSCAASGFTFLRYAMGWYRQAPGKERELVAGITKSGGTTYYADSVKGRFTISRDNAKNTVYLQMNSLKPEDTAVYYCNALYSRRRRPYTDDYDYWGQGTQVTVSS
polyreactivity (PSR sort gate): high polyreactivity

residue codes: QVQLVESGGGLVQAGGSLRLSCAASGSTFAYYTMGWYRQAPGKERELVAAITSGGRTTYADSVKGRFTISRDNAKNTVYLQMNSLKPEDTAVYYCAKGRKPGYYYWGQGTQVTVSS
polyreactivity (PSR sort gate): high polyreactivity

residue codes: QVQLVESGGGLVQAGGSLRLSCAASGRIIGLYARGWYRQAPGKERELVAAITWRGGRTYYADSVKGRFTISRDNAKNTVYVQMNRLSPEDTAVYYCAADLSNSLDYWGQGSQVTVSS
polyreactivity (PSR sort gate): high polyreactivity

IN: So what does the record say about polyreactivity (PSR sort gate) for QVQLVESGGGLVQAGGSLRLSCAASGSIFLKYAMGWYRQAPGKERELVAAISSRGGSTYYADSVKGRFTISRDNAKNTVYLQMNSLKPEDTAVYYCAAKRWPGTDGYWGQGTQVTVSS ?
OUT: high polyreactivity

IN: Name the recorded polyreactivity (PSR sort gate) for QVQLVESGGGLVQAGGSLRLSCAASGSIFSRNVMGWSRQAPGKERELVAGISWRGGRTYYADSVKGRFTISRDNAMITVYLQMTSLKPEDTAVYYCAKGGVSYGEGDYWGQGTQVTVSS .
OUT: high polyreactivity

IN: Look up polyreactivity (PSR sort gate) for this sequence: QVQLVESGGGLVQAGGSLRLSCAASGLTFGFYAMGWYRQAPGKERELVAGISNGGSTNYADSVKGRFTISRDNAKNTVYLQMNSLKPEDTAVYYCAARLYARRLYDYWGQRTQVTVSS
OUT: low polyreactivity

IN: Entry QVQLVESGGGLVQAGGSLRLSCAASGITFPSYAMGWYRQAPGKEWELVATISRGDSTYYADSVKGRFTISRDNAKNTVYLQMNSLKPEDTAVYYCNARWWFQLYYYSTFAGYNYWGQGTQVTVSS : reported polyreactivity (PSR sort gate) = ?
OUT: low polyreactivity

IN: Which polyreactivity (PSR sort gate) value belongs to QVQLVESGGGLVQAGGSLRLSCAASGRIFNRNAMGWYRQAPGKERELVAAITRGGRTNYADSVKGRFTISRDNAQNTVYLQMNSLKPEDTAVYYCAAAYYGSHGRYDYWVQGTQVTVSS ?
OUT: high polyreactivity

IN: Could you share which polyreactivity (PSR sort gate) value was measured for QVQLVESGGGFVQAGGSLRLSCAASGSTFDGYAMGWYRQAPGKERELVAAITSSDGSTYYADSVKGRFTISRDNAKNTVYLQMNSLKPEDTAGYSCAAAPDWKDSLPPDMDYWGQGTQVTVSS ?
OUT: low polyreactivity

IN: Tell me the measured polyreactivity (PSR sort gate) of QVHLVESGGGLVQAGGSLRLSCAATGSTFPFYTMGWYRQAPGKERELVASISVKGDTTYYADSVKGRFTISRDNAKNTVYLQMNSLKPDDTAVYYCATGPYIWQEWSPGFEYWGQGTQVTVSS , please.
OUT: low polyreactivity

IN: For the sequence shown here, QFQLVESGGGLVQAGGSLRLSCAASGCTLQRNNRGWYRQAPGKDSEFVARISRRACSTYYADSVKGRITISRDNAKNTVYLQMNSLKPEDTAVYYCSTEDRGLTTRYPYDYWGQGTQVTVSS , give the reported polyreactivity (PSR sort gate).
OUT: high polyreactivity

* * *

# protocol: yeast display, Sf9 membrane polyspecificity reagent, FACS + sequencing; frameworks hold sequencing errors
assay endpoint: polyreactivity (PSR sort gate)

In the examples that follow, each entry is paired with its recorded polyreactivity (PSR sort gate).
residue codes: QVQLVESGGGLVQAGGSLRLSCAASGFTFYPYTMGWYRQAPGKERELVAVITYDSTYYADSVKGRFTISRDNAKNTVYLQMNSLKPEDTAVYYCNATGYSVSRSAYWYGWYDYWGQGTQVTVSS
polyreactivity (PSR sort gate): low polyreactivity

residue codes: QVQLVESGGGLVQAGGSLRLSCAASGRTFGFYAMGWYRQAPGKERELVATITYRGSGGSTYYADSVKGRFTISRDNAKNTVYLQMNSLKPEDTAVYYCAADKRYSRYFSFDYWGQGTQVTVSS
polyreactivity (PSR sort gate): high polyreactivity

residue codes: QVQLVESGGGLVPAGGSLRLSCAASGFIFRYNTMGWYRQAPGKERELVAAITSGDSTYYADSVKGRFTISRDNAKNTVYLQMNSLKPEDTAVFYCAAAAYDSNGRYYYWGQGTQVSVSS
polyreactivity (PSR sort gate): high polyreactivity

residue codes: QVQLVESGGGLVHAGGSLRLSCAASVSIFASNAMGWYRQAPGKERELVAAITSSGRTKYADSVKGRFTISRDNAKNTVYLQMNSLNPEDTAVYYCAAVYYTYFGRYDYWGQGTQVTVSS
polyreactivity (PSR sort gate): high polyreactivity

residue codes: QVQLVESGGGLVQAGGSLRLSCAASGRIFRYYTMGWYRQAPGKERELVAAINSSCGSTYYADSVKGRFTISRDNAKNTVYLQMNSLIAEDTAVYYCNAVGYTGRYQFWRVWDVHGDYWGQGNQVTVSS
polyreactivity (PSR sort gate): high polyreactivity

IN: Give the measured polyreactivity (PSR sort gate) of QVQLVESGGCLLQAGGSLRLSCAASGYTFGKNAMGWYRPAPGKERELVARIRTNGGTTYYADSVKGRFTISRDIAKYTVYLQMYSLKPEDTAVDYCNAYRGYEYDYWGQGTHVTVSS .
OUT: low polyreactivity

IN: Name the recorded polyreactivity (PSR sort gate) for QVQLVESGGGLVQAGGSLRLSCAASGFTFGGYAMGWYRQAPGKERELVAAISKSGGRTYYADSVKGRFTISRDNAKNTVYLQMNSLKPEDTAVYYCAASTIWHYDSWGQGTQVTVSS .
OUT: high polyreactivity

* * *

# protocol: yeast display, Sf9 membrane polyspecificity reagent, FACS + sequencing; frameworks hold sequencing errors
assay endpoint: polyreactivity (PSR sort gate)

Here are 5 sequences together with their reported answers.
residue codes: QVQLVESVGGLVQAGGSLRLSCAASGSILRRYAMGWYRRAPWKERELVAAIDGGGGTTYYADSVKGRFTISRDYAKKTVYLQMNSLKPEDNAVYYCAADASWELIAWAHYDYWGQGTQVSVSS
polyreactivity (PSR sort gate): low polyreactivity
//
residue codes: QVQLVESGGGLVQAGGSLRLSCAASGLIFVWYDMGWYRQAPGKERELVATISSDGITNYADSVKGLFTISRDNAKNTVYLQMNSLKPEDTAVSYCNAGPDDYVGYWGKYDYWGQGTQVTVSS
polyreactivity (PSR sort gate): low polyreactivity
//
residue codes: QVQLVESGGGLVQAGGSLRLSCAASGSTFGSYAMGWYRQAPGKERELVASISLSDGSTYADSVKGRFTISRDNAKNTVYLQMNSLKQEDTAVYYCNVDWFSHDSDYYSFAYDYWGQGTQVTVSS
polyreactivity (PSR sort gate): high polyreactivity
//
residue codes: QVQLVESVGGLVQAGGSLRLSCAASGIIFVGYAMGWYRPAPGKERELVSAIDLSGDSTYYADSVKGRFTISRDNAKNTVYLQMNSLKPEDTAVYYCAAGYWHRVNGDYDYWGQGTQVTVSS
polyreactivity (PSR sort gate): high polyreactivity
//
residue codes: QVQLVESVGGLVQAGGSLRLSCAASGFIFPYYVMGWYRQAPGKERELVAAITSVGITYYADSVKGRFTISRDNAKNTVYLQMNSLKPEDTAVYYCAADYKYFYDWGSFVEDEYWGQGTQVTVSS
polyreactivity (PSR sort gate): high polyreactivity

IN: So what's the measured polyreactivity (PSR sort gate) for this one? QVQLVESGGGLVQAGGSLRLSCAASGRIFYSYAMGWYRQAPGKERELVAAIDESDGSPYYADSVKGRFTISRDNAKNTVYLQMNSLKPEDTAVYYCAADSLLVLFDYWGQGTQVTVSS
OUT: low polyreactivity

IN: # input sequence: QVHLVESGGGLVQPGGSLRLSCAASGFPFYINAMGWYRQAPGTERELVAAITIGSTTYYADSVKGRCTISRDNAKNTVYLQMNSLKPEDTAVYYCAAEVWRDYTSRLYDYWGQGTQVTVSS ; wanted: its polyreactivity (PSR sort gate)
OUT: low polyreactivity

IN: What does the data say about its polyreactivity (PSR sort gate)? Entry: QVQLVESGGGLVQAGGSLRLSCAASGSTFGYYTMGWYRQAPGKERELVAAITWLGGRTYYADSVKGRFTISRDNAKNTVYLQMNSLKPEDTAVYYCAARSTVLMDYWGQGTQVTVSS
OUT: high polyreactivity

IN: Find the recorded polyreactivity (PSR sort gate) belonging to QVQLVESGGGLVQAGGSLRLSCAASGITFYFYAMGWYRQAPGKERELVASITSSGSTDYADSVKGRFTISRDNAKNTVYLQMNSLKPEDTAVYYCAADVQNHFYSFGDERGFPFDYWGQGTQVTVSS and report it.
OUT: low polyreactivity

IN: Item under review: QVQLVESGGGLVQAGGSLRLSCAASGFTIVPYAMGWYRQAPGKERELVAAISRRGSRTYYADSVKGRFTISRDNAKNTVYLQMNSLKPEDTAVYYCAAKLSAVKAAYDYWGQGTQVTVSS . Reported polyreactivity (PSR sort gate)?
OUT: high polyreactivity

This collection of values is drawn from the nanobody polyreactivity screen of Harvey et al. (2022).
